Test system: velvetleaf
assay name: Test B pre/postemergence velvetleaf
Format: in vivo, Abutilon theophrasti
condition set: Rate 250 g/ha; Postemergence
For each entry below, report its Plant response rating (0 to 10; 0 is no effect, 10 is complete control), Velvetleaf value.
Number only, please.

Query: # return recorded Plant response rating (0 to 10; 0 is no effect, 10 is complete control), Velvetleaf for input Cc1ccccc1-n1c(=O)on(C(=O)N(c2ccc(N(C)C)cc2)C(C)C)c1=O [Compound 237]
Response: 0

Query: Name the recorded Plant response rating (0 to 10; 0 is no effect, 10 is complete control), Velvetleaf of the item CC(C)N(C(=O)n1oc(=O)n(Cc2ccco2)c1=O)c1ccc(F)cc1 [Compound 207] in your answer.
Response: 1

Query: Dear colleague, please send me the reported Plant response rating (0 to 10; 0 is no effect, 10 is complete control), Velvetleaf for CCCCn1c(=O)on(C(=O)N(c2ccc(F)cc2)C(C)C)c1=O [Compound 221] when you can.
Response: 0

Query: Return Plant response rating (0 to 10; 0 is no effect, 10 is complete control), Velvetleaf for the following compound: COc1nc(OC)nc(N(C(=O)n2oc(=O)n(C(C)C)c2=O)C(C)C)n1 [Compound 182]
Response: 0

###

Test system: crabgrass
assay name: Test B pre/postemergence crabgrass
Type: in vivo, Digitaria sanguinalis
condition set: Preemergence, Rate 125 g/ha; scale 0 to 10 (0 no effect, 10 complete control)
measurement type: Plant response rating, Crabgrass
Answer with the value's number alone.

Query: Recall and state the measured Plant response rating, Crabgrass for Cc1ccccc1-n1c(=O)on(C(=O)N(c2ccc(F)cc2)C(C)C)c1=O .
Response: 10

Query: Return value of Plant response rating, Crabgrass for input CCN(CC)C(=O)n1oc(=O)n(-c2ccc(OC)cc2)c1=O , no commentary.
Response: 4

Query: Please look at this compound and report its Plant response rating, Crabgrass: CC(C)Oc1cc(-n2c(=O)on(C(=O)N(c3ccc(F)cc3)C(C)C)c2=O)c(Cl)cc1Cl
Response: 0

Query: Please give measured Plant response rating, Crabgrass of the following entry: COc1ccc(-n2c(=O)on(C(=O)N(c3ccc(F)cc3)C(C)C)c2=O)c(C)c1
Response: 3

Query: Using the record for C=CCn1c(=O)on(C(=O)N(c2ccccc2)C(C)C)c1=O , state its measured Plant response rating, Crabgrass.
Response: 9

Query: Supply measured Plant response rating, Crabgrass of CCN(C(=O)n1oc(=O)n(-c2ccc(C)cc2C)c1=O)C1CCCCC1 in your reply.
Response: 0

###

Test system: surinam grass
assay name: Test B pre/postemergence surinam grass
Assay type: in vivo, Brachiaria decumbens
condition set: Preemergence, Rate 250 g/ha; scale of 0 to 10 where 0 is no effect and 10 is complete control
For each of the compounds below, state its B. signalgrass plant response rating.
Reply with just the number.

Query: // fetch B. signalgrass plant response rating; item: Cc1ccccc1-n1c(=O)on(C(=O)N(c2ccc(F)cc2)C(C)C2CC2)c1=O (centres unmarked) ; system: surinam grass
Response: 0

Query: Please respond with reported B. signalgrass plant response rating (system surinam grass) for CC(C)N(C(=O)n1oc(=O)n(CC2CC2)c1=O)c1ccc(F)cc1 .
Response: 7

Query: Give surinam grass B. signalgrass plant response rating for the following compound: CC(C)N(C(=O)n1oc(=O)n(C2CCCC2)c1=O)c1ccc(F)cc1F
Response: 5

Query: Give measured B. signalgrass plant response rating for CC(C)N(C(=O)n1oc(=O)n(C2CCC2)c1=O)c1ccccc1 (surinam grass).
Response: 5

Query: Report value: B. signalgrass plant response rating, system: surinam grass, compound: CC(C)N(C(=O)n1oc(=O)n(C(C)C2CC2)c1=O)c1ccc(F)cc1 (centres unmarked)
Response: 8

Query: Please report the measured B. signalgrass plant response rating for CC(C)=CCn1c(=O)on(C(=O)N(c2ccc(F)cc2)C(C)C)c1=O tested on surinam grass.
Response: 6

Query: Recall the reported B. signalgrass plant response rating of CC(C)C(C)n1c(=O)on(C(=O)N(c2ccc(F)cc2)C(C)C)c1=O (centres unmarked) when tested on surinam grass.
Response: 9

Query: Using surinam grass as the test system, report measured B. signalgrass plant response rating of CC(C)N(C(=O)n1oc(=O)n(C2CC3CCC2C3)c1=O)c1ccc(F)cc1F (centres unmarked) .
Response: 3

###

System: crabgrass
assay name: Test B pre/postemergence crabgrass
Type: in vivo, Digitaria sanguinalis
condition set: Postemergence, Rate 62 g/ha; scale 0 to 10, 0 is no effect, 10 is complete control
measurement type: Crabgrass plant response rating
Just the number.

Query: Please indicate Crabgrass plant response rating recorded for Cc1nn(C)c(C)c1-n1c(=O)on(C(=O)N(c2ccc(F)cc2)C(C)C)c1=O
Response: 0

Query: Fill in Crabgrass plant response rating for record C=CCn1c(=O)on(C(=O)N(c2ccccc2)C(C)C)c1=O
Response: 7

Query: Return the recorded Crabgrass plant response rating value; entry: Cc1ccccc1-n1c(=O)on(C(=O)N(c2ccc(Cl)cc2)C(C)C)c1=O
Response: 0

Query: Return reported Crabgrass plant response rating. Input compound: Cc1ccccc1Cn1c(=O)on(C(=O)N(c2ccc(F)cc2)C(C)C)c1=O
Response: 0

###

Test system: cocklebur
assay name: Test B pre/postemergence cocklebur
Assay type: in vivo, Xanthium strumarium
condition set: Postemergence, Rate 250 g/ha; scale 0 to 10
Field: Cocklebur plant response rating. Provide a value for each of the molecules that follow.
# answer = number (no unit)

Query: Give a short answer stating reported Cocklebur plant response rating for CC(C)N(C(=O)n1oc(=O)n(CNC(=O)c2ccccc2)c1=O)c1ccc(F)cc1 .
Response: 2

Query: Write down Cocklebur plant response rating measured for item COC(OC)C(C)n1c(=O)on(C(=O)N(c2ccc(F)cc2F)C(C)C)c1=O (centres unmarked)
Response: 0

Query: Give Cocklebur plant response rating for CC(C)N(C(=O)n1oc(=O)n(CCCl)c1=O)c1ccc(Cl)cc1
Response: 0

Query: Please indicate Cocklebur plant response rating recorded for CC(C)N(C(=O)n1oc(=O)n(CCC[Si](C)(C)C)c1=O)c1ccc(F)cc1
Response: 0

Query: Look up and report measured Cocklebur plant response rating for this entry: CCc1nc(C)c(Cn2c(=O)on(C(=O)N(c3ccc(Cl)cc3)C(C)C)c2=O)s1
Response: 2

Query: Answer with the recorded Cocklebur plant response rating for the molecule listed here: CC(C)N(C(=O)n1oc(=O)n(CCc2ccccc2)c1=O)c1ccc(F)cc1F
Response: 4

Query: // Input: CC(C)C(=O)Cn1c(=O)on(C(=O)N(c2ccc(Cl)cc2)C(C)C)c1=O . Output its Cocklebur plant response rating only.
Response: 0

Query: Note down Cocklebur plant response rating recorded for COC(=O)C(C)n1c(=O)on(C(=O)N(c2ccc(F)cc2F)C(C)C)c1=O (centres unmarked)
Response: 0

###

Record form. Attribute: Soybean plant response rating. Fill in for each entry.
Tested on: soybean
assay name: Test B pre/postemergence soybean
Format: in vivo, Glycine max
condition set: Preemergence, Rate 500 g/ha; scale 0 (no effect) to 10 (complete control)
Experimental: […] At the same time, these crop and weed species were also treated with postemergence applications of test chemicals formulated in the same manner. […] Treated plants and controls were maintained in a greenhouse for twelve to sixteen days, after which all species were compared to controls and visually evaluated. […]
Please respond with just the number, no unit label.

Query: Tell me Soybean plant response rating reported for CCN(C(=O)n1oc(=O)n(-c2c(C)cc(C)cc2C)c1=O)C1CCCCC1 [Compound 63]
Response: 0

Query: Please report the measured Soybean plant response rating for CCN(CC)C(=O)n1oc(=O)n(-c2cccc3c2CCCC3)c1=O [Compound 89]
Response: 0

Query: Dear colleague, please send me the reported Soybean plant response rating for Cc1nn(C)c(C)c1-n1c(=O)on(C(=O)N(c2ccc(F)cc2)C(C)C)c1=O [Compound 75] when you can.
Response: 0

###

System: corn
assay name: Test B pre/postemergence corn
Format: in vivo, Zea mays
condition set: Preemergence, Rate 62 g/ha; scale of 0 to 10 where 0 is no effect and 10 is complete control
Provide the recorded Plant response rating, Corn for the entries that follow.
Keep it simple and answer with nothing but the number.

Query: Could you please provide reported Plant response rating, Corn for CCCCCn1c(=O)on(C(=O)N(c2ccc(Cl)cc2)C(C)C)c1=O ? Thanks!
Response: 0

Query: For the molecule CC(C)N(C(=O)n1oc(=O)n(CCc2ccccc2)c1=O)c1ccc(F)cc1F , report Plant response rating, Corn.
Response: 0

Query: Kindly indicate its recorded Plant response rating, Corn. Item: CC(C)N(C(=O)n1oc(=O)n(CNC(=O)c2ccccc2)c1=O)c1ccc(F)cc1
Response: 0

Query: Give the measured Plant response rating, Corn for CC(C)N(C(=O)n1oc(=O)n(CCC[Si](C)(C)C)c1=O)c1ccc(F)cc1
Response: 0

Query: Retrieve Plant response rating, Corn measured for CC(C)C(=O)Cn1c(=O)on(C(=O)N(c2ccc(Cl)cc2)C(C)C)c1=O and print it.
Response: 0

Query: Annotate the molecule CC(C)N(C(=O)n1oc(=O)n(CCCl)c1=O)c1ccc(Cl)cc1 with its measured Plant response rating, Corn.
Response: 0

Query: Please report Plant response rating, Corn for the following molecule: CCOC(=O)C=C(Cn1c(=O)on(C(=O)N(c2ccc(F)cc2F)C(C)C)c1=O)OCC
Response: 0

Query: Given COCC(OC)n1c(=O)on(C(=O)N(c2ccc(F)cc2)C(C)C)c1=O (centres unmarked) , respond with its Plant response rating, Corn.
Response: 0
